Test system: Mus musculus
Assay: Analgesic activity in Swiss albino mouse assessed as protection against acetic acid-induced writhing at 100 mg/kg, po administered 1 hr prior to acetic acid challenge relative to control measured after 3 hrs
Type: functional
Reported values of Activity for individual entries

| entry smiles | Activity [%] |
| --- | --- |
| COc1ccc(NCc2nc3ccc(Br)cc3[nH]2)cc1 | 83.33 |
| COc1ccc(NCc2nc3ccccc3[nH]2)cc1 | 83.33 |
| Clc1cccc(NCc2nc3ccc(Br)cc3[nH]2)c1 | 89 |
| Clc1ccccc1NCc1nc2ccc(Br)cc2[nH]1 | 80 |
| O=[N+]([O-])c1ccc2nc(CNc3ccc(Br)cc3)[nH]c2c1 | 79 |
| Clc1cccc(NCc2nc3ccccc3[nH]2)c1 | 81.33 |

====

Reported values of inhibition in vivo at 100 mg/kg for individual entries
System: Rattus norvegicus
Experiment: Antiinflammatory activity in albino rat assessed as inhibition of carrageenan-induced paw oedema at 100 mg/kg, po measured after 30 mins of carrageenan challenge relative to control
Format: functional
Conditions: 0.5 h

| entry smiles | inhibition in vivo at 100 mg/kg, % |
| --- | --- |
| Cc1ccc(NCc2nc3ccc(Br)cc3[nH]2)cc1 | 7.6 |
| c1ccc(NCc2nc3ccccc3[nH]2)cc1 | 7.6 |
| O=[N+]([O-])c1ccc2nc(CNc3ccc(Br)cc3)[nH]c2c1 | 15.3 |
| Clc1cccc(NCc2nc3ccccc3[nH]2)c1 | 15.3 |
| Brc1ccc2nc(CNc3ccccc3)[nH]c2c1 | 7.6 |
| COc1ccc(NCc2nc3ccccc3[nH]2)cc1 | 7.6 |
| Clc1cccc(NCc2nc3ccc(Br)cc3[nH]2)c1 | 7.6 |

====

Reported values of Activity for individual entries
Tested on: Mus musculus
Experiment: Analgesic activity in Swiss albino mouse assessed as protection against acetic acid-induced writhing at 100 mg/kg, po administered 1 hr prior to acetic acid challenge relative to control measured after 3 hrs
Format: functional
assay endpoint: Activity (%)

| entry smiles | assay endpoint | unit of measure | assay result |
| --- | --- | --- | --- |
| Brc1ccc2nc(CNc3ccccc3)[nH]c2c1 | Activity | % | 80 |
| Brc1ccc(NCc2nc3ccc(Br)cc3[nH]2)cc1 | Activity | % | 85.66 |
| Cc1ccc(NCc2nc3ccc(Br)cc3[nH]2)cc1 | Activity | % | 88 |
| c1ccc(NCc2nc3ccccc3[nH]2)cc1 | Activity | % | 72.33 |
